System Name: KRAS G12D (Homo sapiens, UniProt P01116, G12D)
Sequence (P01116 1-188 isoform P01116-2 G12D): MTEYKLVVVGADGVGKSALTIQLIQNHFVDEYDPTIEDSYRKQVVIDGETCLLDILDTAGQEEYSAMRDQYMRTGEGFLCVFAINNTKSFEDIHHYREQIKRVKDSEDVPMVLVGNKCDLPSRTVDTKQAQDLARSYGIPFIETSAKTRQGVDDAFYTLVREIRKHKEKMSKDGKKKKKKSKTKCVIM
Test Details: GDP-GTP exchange assay (KRAS G12D);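 note: one dagger IC50 up to 100 nM and two daggers above 100 nM up to 1 μM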
Format: biochemical
Details: bodipy-GDP/GppNHp exchange with SOS1; 4 h pre-incubation, 2 h reaction
Outcome Measure: G12D_exchange (KRAS_G12D exchange assay IC50)

Molecule: Cc1nc(N2C[C@@H]3C[C@H](C2)N(C(=O)C2CC2)[C@H]3c2cc3c(C)nc4c(F)c(-c5cccc(Cl)c5Cl)c(CCC#N)cc4c3n2[C@H]2[C@H]3CN[C@@H]2C3)sc1C#N (atropisomer, axis not shown; (Ra))
System Name: KRAS G12D (Homo sapiens, UniProt P01116, G12D)
Reading: †
--
Molecule: Cc1nc2c(F)c(-c3cccc(Cl)c3Cl)c(CCC#N)cc2c2c1cc([C@H]1[C@H]3C[C@H](CN(c4ccn5cc(C(F)(F)F)nc5c4)C3)N1C(=O)C1CC1)n2[C@H]1[C@H]2CN[C@@H]1C2 (atropisomer, axis not shown; (Ra))
System Name: KRAS G12D (Homo sapiens, UniProt P01116, G12D)
Reading: †
